- Tested on: MDR1
- assay overview: in vitro
- condition info: dog, MDCK-MDR1, pH 7.4
Quick rule for you: efflux ratio at 120 min, 5 μM under 50 gets Met, anything else gets Not met.

# compound, qualitative label
data = [
    ("CN1[C@@H]2CC[C@H]1[C@H](F)[C@H](N(c1ccc(-c3cc4oc(C(=O)N5CCC5)cc4cc3O)nn1)C1CC1)C2 (single isomer, unassigned) [Compound 92A]", "Met"),
    ("CN(c1ccc(-c2cc3cc[nH]c(=O)c3s2)nn1)[C@H]1C[C@@H]2CC[C@@H](N2)[C@H]1F (single isomer, unassigned) [Compound 66B]", "Not met"),
    ("CN(c1ccc(-c2cn3c(=O)ccnc3cc2O)nn1)[C@@H]1C[C@H]2CC[C@@H]([C@@H]1F)N2C (single isomer, unassigned) [Compound 95A]", "Not met"),
    ("CN(c1ccc(-c2cc3ccn(C)c(=O)c3cc2O)nn1)[C@H]1C[C@@H]2CC[C@H]([C@H]1F)N2C (single isomer, unassigned) [Compound 97B]", "Met"),
    ("CN(c1ccc(-c2ccc(Oc3nccn3C)cc2O)nn1)[C@@H]1C[C@H]2CC[C@H](N2)[C@@H]1F (single isomer, unassigned) [Compound 123A]", "Not met"),
    ("CN1[C@@H]2CC[C@H]1[C@H](F)[C@H](N(c1ccc(-c3cc4ncn(CC(F)(F)F)c(=O)c4cc3O)nn1)C1CC1)C2 (single isomer, unassigned) [Compound 111A]", "Met"),
    ("CN(c1ccc(-c2cc3ncn(CC(F)(F)F)c(=O)c3cc2O)nn1)[C@H]1C[C@@H]2CC(F)(F)[C@H](C1)N2 [Compound 59B]", "Met"),
]
